# Measured On: URAT1 (Homo sapiens (Human))
# Sequence (Q96S37 whole entry, species assumed): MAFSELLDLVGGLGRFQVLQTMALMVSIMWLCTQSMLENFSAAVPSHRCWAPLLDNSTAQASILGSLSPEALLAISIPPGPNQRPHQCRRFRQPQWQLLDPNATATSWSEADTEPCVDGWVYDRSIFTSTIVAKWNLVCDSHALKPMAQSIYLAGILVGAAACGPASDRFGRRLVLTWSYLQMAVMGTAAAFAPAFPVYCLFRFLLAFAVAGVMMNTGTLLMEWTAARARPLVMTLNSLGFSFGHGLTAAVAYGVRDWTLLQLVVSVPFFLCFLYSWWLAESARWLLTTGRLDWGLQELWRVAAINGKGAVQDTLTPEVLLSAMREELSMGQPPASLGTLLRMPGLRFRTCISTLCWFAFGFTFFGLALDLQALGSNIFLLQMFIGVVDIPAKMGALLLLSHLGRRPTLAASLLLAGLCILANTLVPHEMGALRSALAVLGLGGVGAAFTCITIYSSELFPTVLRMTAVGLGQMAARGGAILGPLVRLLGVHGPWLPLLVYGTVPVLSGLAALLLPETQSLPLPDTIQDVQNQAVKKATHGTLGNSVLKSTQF
# Measurement Notes: URAT1-model assay, 14C-uric acid transport in HEK293/URAT1-model cells
# Experimental Context: 14C-uric acid 125 μM, 10 minutes at room temperature, read-out: URAT1 EC50 Activity Ranking
Measured Metric: EC50

| Chem Smiles | Measured On | Measured Metric | Observed |
| --- | --- | --- | --- |
| COc1cc(-c2cnccc2SC(C)(C)C(=O)O)ccc1C#N | URAT1 (Homo sapiens (Human)) | EC50 | 50 to 500 nM |
| CC(C)(Sc1ccncc1-c1ccc(CO)cc1)C(=O)O | URAT1 (Homo sapiens (Human)) | EC50 | 1 to 50 nM |
| CC(C)(Sc1ccncc1-c1cncc2ccccc12)C(=O)O | URAT1 (Homo sapiens (Human)) | EC50 | 50 to 500 nM |
